Assay: chemical genetic growth profiling, strain panel (AID 1159580);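 note: tested at 20 µM; growth read once vehicle control cultures reached saturation at 30 °C; 1 = growth at the plate median or of vehicle wells; lower values mean less growth of the strain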
Conditions: S. cerevisiae deletion strains, growth OD, locus YML124C, strain tub3, hits give low values
The campaign covered roughly 5,500 compounds. About 2,000 (36%) were called active. Not shown: some 18% with an inconclusive outcome. The list shows a part of the results.
quantity: normalized growth

{"columns": ["compound", "measured.result"],
 "data": [
  ["C[C@]12[C@H](O)CC3C(CC[C@@H]4C[C@@H](O)CC[C@]34C)[C@@]1(O)CC[C@@H]2C1=CC(=O)OC1 (stereo partly specified)", 0.986],
  ["CC(C)N=C(N)N=C(N)Nc1ccc(Cl)cc1", 1.01],
  ["O=C(CCc1ccc(O)cc1)c1c(O)cc(O)cc1O", 1.01],
  ["CC(C)=CCC/C(C)=C/CO", 0.991],
  ["C[N+]12CCC(CC1)C(OC(=O)C(O)(c1ccccc1)c1ccccc1)C2 (stereo unspecified)", 0.985],
  ["C[C@]12CC[C@@H](O)C[C@H]1CCc1ccccc12", 1],
  ["NC(=NCCCCCCN=C(N)N=C(N)Nc1ccc(Cl)cc1)N=C(N)Nc1ccc(Cl)cc1", 0.0596],
  ["CC(C)c1cc2c(c(O)c1O)[C@@]1(C(=O)O)CCCC(C)(C)C1CC2 (stereo partly specified)", 1.01],
  ["COc1ccc([C@@H](C)C(=O)c2ccc(O)cc2O)cc1", 0.968],
  ["COC(=O)C[C@H]1C(C)(C)[C@@H](OC(C)=O)[C@@H]2CC3=C4CC(=O)O[C@@H](c5ccoc5)[C@]4(C)CCC3[C@@]1(C)C2=O (stereo partly specified)", 1.01],
  ["COc1cc(O)ccc1C(C)=O", 0.997]
]}
